experimentDescription: decrease of insulin promoter-GFP reporter – imaging, high-content screening, mouse beta cells (AID 1628)
conditionNotes: MIN6 insulin promoter GFP reporter, at 5 µM, hits give low values
Among all 190,000 compounds or so, about 930 (0.49%) were called active. The list shows a part of the results. Entries with a potency or affinity are not part of this list.
propertyMeasured: z-score

compound: O=C(NN=C1CCN(Cc2ccccc2)CC1)c1cc(Br)ccc1O
result: 1.47 (inactive)

compound: O=C(COc1ccccc1)N1CCN=C1c1ccccc1
result: 3.07 (inactive)

compound: CCN(CC)c1ccc(/C=C(\C#N)c2nc(-c3cccs3)c(NC(C)=O)s2)cc1
result: 16.9 (inactive)

compound: CN(C)c1ccc(/C=N/NC(=O)CN(c2ccccc2Cl)S(C)(=O)=O)cc1Br
result: 3.57 (inactive)

compound: CCCCN(CC)S(=O)(=O)c1ccc(C(=O)N(CCCN(C)C)c2nc3cc(C)cc(C)c3s2)cc1
result: -3.82 (active)

compound: Oc1c(C(c2ccccn2)N2CCCCC2)cc(Cl)c2cccnc12 (stereo not drawn)
result: -5.13 (active)

compound: O=C(CSc1nc2ccc(Cl)cc2o1)NCc1ccc2c(c1)OCO2
result: 3.95 (inactive)

compound: CCc1cc2c(=O)n(Cc3ccco3)c(SCC(=O)N3CCCc4ccccc43)nc2s1
result: -3.14 (active)

compound: CC(C)(C)c1ccc(OCC(=O)Nc2ccc3c4c(cccc24)C(=O)NC3=O)cc1
result: 5.3 (inactive)

compound: O=C(Nc1ccc(F)cc1)NC1CCN(Cc2ccccc2)CC1
result: -3.27 (active)

compound: CC(C)N1CCc2c(sc(NC(=O)c3cc4cc([N+](=O)[O-])ccc4s3)c2C(N)=O)C1
result: 7.47 (inactive)

compound: COC(=O)c1c[nH]n2c(=O)c(Cc3ccc(F)cc3Cl)c(C)nc12
result: 3.42 (inactive)

compound: COc1cccc(-c2nn(C)c3sc(C(=O)N4CCN(c5ccccn5)CC4)cc23)c1
result: -10.4 (active)

compound: O=c1[nH]c(/C=C/c2ccccc2OC(F)F)nc2c1cnn2-c1ccccc1
result: 3.2 (inactive)

compound: CCC(=O)N1CCCc2cc(S(=O)(=O)N3CCN(c4ccccc4F)CC3)ccc21
result: -5.64 (active)

compound: Cc1ccn2c(Nc3ccccc3C)c(-c3ccccn3)nc2c1
result: -3.6 (active)

compound: Cc1c(C(=O)O)cccc1-c1ccc(/C=C2/NC(=O)N(c3ccccc3)C2=O)o1
result: 3.88 (inactive)

compound: COCCN(CCOC)Cc1cc(=O)oc2cc3c(cc12)CCC3
result: 3.14 (inactive)

compound: COc1cccc(NC(=O)N2CCCC2C(=O)NC(C)C)c1 (stereo not drawn)
result: -5.72 (active)

compound: CC1=C(C(=O)Nc2ccc(F)cc2)C(c2ccncc2)C2=C(CCCC2=O)N1 (stereo not drawn)
result: 1.21 (inactive)

compound: Cc1cc(NC(=O)c2cccc(S(=O)(=O)N3CCCCCC3)c2)n(-c2ccccn2)n1
result: -3.67 (active)

compound: CCOC(=O)c1c(C)nc2c(c1C)c(=O)oc1ccccc12
result: 0.62 (inactive)

compound: Cn1cc(/C=C2\SC(=S)N(NC(=O)c3cccc(Cl)c3)C2=O)c2ccccc21
result: 7.3 (inactive)

compound: C=C(C)Cn1c(CCCNC(=O)CC)nc2ccccc21
result: 0.76 (inactive)

compound: Cc1ccc(NC(=O)CCn2cccc2)cc1Cl
result: 3.23 (inactive)

compound: Cc1cccc2cc3c(N)c(C(=O)N4CCCc5ccccc54)sc3nc12
result: 6.25 (inactive)

compound: COc1ccc(-c2n(Cc3ccccc3)c3ccccc3[n+]2Cc2ccccc2)cc1
result: -8.43 (active)

compound: CCN1C(=O)/C(=C/C=C2\N(CC)c3cc(S(=O)(=O)N(C)C)ccc3N2c2ccccc2)SC1=S
result: 13.2 (inactive)

compound: S=C(Nc1ccc(Nc2ccccc2)cc1)Nc1ccccn1
result: -3.32 (active)

compound: COc1ccc(NC(=O)C(=O)NCc2ccncc2)c(OC)c1
result: -4.99 (active)

compound: Cc1cc(C)nc(SCC(=O)Nc2ccc(N3CCOCC3)c(Cl)c2)n1
result: -11 (active)

compound: COc1ccc(NC(=O)C/C(C)=N/NC(=O)C(=O)Nc2cccc(Cl)c2C)c(OC)c1
result: 0.92 (inactive)

compound: COc1ccc(Nc2c(-c3ccco3)nc3ccc(C)cn23)cc1
result: 5.18 (inactive)

compound: Cn1c(=O)c(Nc2ccc(Cl)cc2)c2c3c(cccc31)C(=O)c1ccccc1-2
result: 15.1 (inactive)

compound: Cc1ccc(CNc2ccc3c(c2)OCO3)cc1
result: 5.54 (inactive)

compound: COc1ccc(NC2=Nc3ccccc3N3C2=Nc2c(c(C)nn2-c2ccc(C)cc2)C3c2cccnc2)cc1 (stereo not drawn)
result: 3.08 (inactive)

compound: Cc1ccc(NC(=O)N(Cc2ccc3c(c2)OCO3)Cc2cc3cc4c(cc3[nH]c2=O)OCCO4)cc1
result: -5.39 (active)

compound: Cc1ccc(-c2cn3cccnc3n2)cc1
result: 2.84 (inactive)

compound: CCOC(=O)C1CCN(S(=O)(=O)c2ccc3c(c2)CCCN3C(C)=O)CC1
result: -4.86 (active)

compound: Cc1cc(/C=C2/C(=O)N(C)C(=S)N2C)ccc1N1CCCC1
result: 15.4 (inactive)

compound: O=C(O)CCC(=O)N1CC=C(c2ccccc2)CC1
result: -3.14 (active)

compound: CC(/C=N/NC(=O)c1ccncc1)=C\c1ccc(C(C)C)cc1
result: 3.19 (inactive)

compound: COc1ccc(/C=C(\C#N)C(=O)OCC(=O)Nc2c(C)cccc2C(C)C)cc1
result: 3.36 (inactive)

---

experimentDescription: decrease of insulin promoter-GFP reporter – imaging, high-content screening, mouse beta cells (AID 1628)
conditionNotes: MIN6 insulin promoter GFP reporter, at 5 µM, hits give low values
About 930 (0.49%) of roughly 190,000 compounds were called active. The list shows a part of the results. Potency and affinity values are given separately.
Attribute: z-score
propertyMeasured: z-score

compound: O=C(C1CCC1)N1CCc2cc(S(=O)(=O)NCc3cccnc3)ccc21
result: -3.56 (active)
--
compound: COC(=O)c1sccc1NC(=O)c1cc(OC)c(OC)c(OC)c1
result: 3.71 (inactive)
--
compound: COc1cccc(-n2nnc3c(=O)n(CC(=O)OCc4ccccc4)cnc32)c1
result: 1.01 (inactive)
--
compound: COC(=O)c1ccc(Cl)c(-c2ccc(/C=N/NC(=O)Nc3ccccc3)o2)c1
result: -3.3 (active)
--
compound: O=c1c2nnn(Cc3ccccc3)c2ncn1C/C=C/c1ccccc1
result: -5.83 (active)
--
compound: CCCCCCc1cc2cc(-c3nnc(-c4cc(OC)c(OC)c(OC)c4)o3)c(=O)oc2cc1O
result: 9.96 (inactive)
--
compound: CCOc1ccc(N2CC(C(=O)NCc3ccc(F)cc3)CC2=O)cc1 (stereo not given)
result: -5.37 (active)
--
compound: O=C(C1CCC1)N1CCc2cc(S(=O)(=O)NCCN3CCN(c4ccccc4F)CC3)ccc21
result: -4.42 (active)
--
compound: Cc1ccc(-n2c(O)c(/C=N/NC(=O)C3COc4ccccc4O3)c3ccccc3c2=O)cc1 (stereo not given)
result: 3.14 (inactive)
--
compound: Cc1ccc(/C=N/Nc2ccc3ccccc3n2)o1
result: -3.22 (active)
--
compound: Cc1nc(Cl)c2c(n1)NC1=C(O2)C(=O)CCC1
result: -4.1 (active)
--
compound: Cc1c(Cl)cccc1NC(=O)CN1CCN(CCN=CC2=C(O)CC(c3ccccc3)CC2=O)CC1 (stereo not given)
result: 2.18 (inactive)
--
compound: CCN1CC=C2C(C#N)=C(N)C(C#N)(C#N)C(CCc3ccccc3)C2C1 (stereo not given)
result: 13.8 (inactive)
--
compound: C=CCN1C(=O)/C(=C/c2ccc(N(C)C)cc2)S/C1=N\c1nnc(CC)s1
result: 14.1 (inactive)
--
compound: N#CCCn1cc(C(CC(=O)c2ccc(Br)cc2)C(=O)O)c2ccccc21 (stereo not given)
result: -4.89 (active)
--
compound: NS(=O)(=O)c1ccc(NC(=S)NCc2ccccc2)cc1
result: -4.47 (active)
--
compound: CC(=O)Nc1ccc(N2C(=O)C3C4CC(=O)C(c5ccccc54)C3C2=O)cc1 (stereo not given)
result: -5.05 (active)
--
compound: Cc1ccc(C(C)C)c(OCc2nn(CC(=O)c3ccc(Cl)cc3)c3[n+]2CCCCC3)c1
result: -4.3 (active)
--
compound: CCOC(=O)CC1C(=O)NCCN1c1nc2c(C)cccn2c(=O)c1/C=C1\SC(=S)N(C(C)CC)C1=O (stereo not given)
result: 9.72 (inactive)
--
compound: COc1ccc(N=c2oc3c(OC)cccc3cc2C(=O)NCc2ccco2)c(OC)c1
result: -3.31 (active)

---

experimentDescription: decrease of insulin promoter-GFP reporter – imaging, high-content screening, mouse beta cells (AID 1628)
conditionNotes: MIN6 insulin promoter GFP reporter, at 5 µM, hits give low values
Screen size: about 190,000 compounds; about 930 (0.49%) were called active. The list shows a part of the results. Potency and affinity values are given separately.
Note to self: z-score under 3 means T, ties and anything higher get F.

compound: Clc1ccc2[nH]c3c(NCC4CCCO4)ncnc3c2c1 (stereo unspecified)
groupLabel: T
//
compound: N#Cc1ccsc1NC(=O)COC(=O)c1ccc2ccccc2c1
groupLabel: T
//
compound: COc1cccc(C2=N/C(=C\N(C)C)C(=O)O2)c1
groupLabel: T
//
compound: COc1ccc2c(=O)c(-c3ccccc3)coc2c1
groupLabel: T
//
compound: CCCCCCc1cc2cc(-c3nnc(-c4ccccc4O)o3)c(=O)oc2cc1O
groupLabel: F
//
compound: C1=C(c2ccccc2)Nc2nnnn2C1
groupLabel: F
//
compound: COCc1cc(C)nc(Nc2ccccc2C)c1C#N
groupLabel: F
//
compound: c1ccc(Cn2nnnc2C(c2ccccc2)N2CCN(c3nc4ccccc4s3)CC2)cc1 (stereo unspecified)
groupLabel: T
//
compound: COc1ccc2nc(SCC(=O)Nc3c(C)cccc3C)[nH]c2c1
groupLabel: F
//
compound: O=C(c1ccco1)N1CCN(C(=O)c2cc3sccc3n2Cc2ccccc2)CC1
groupLabel: T
//
compound: CC1(C)C=Cc2c(c3c(c4c(=O)c(-c5ccc(O)cc5)coc24)OC(C)(C)CC3)O1
groupLabel: T
//
compound: Cc1nn(Cc2ccccc2Cl)c2sc(C(=O)NCCCn3ccnc3)cc12
groupLabel: T
//
compound: CCOC(=O)N1CCC(N2Cc3cccc(C(=O)N4CCN(c5cccc(C)c5C)CC4)c3C2=O)CC1
groupLabel: T
//
compound: C=CCSc1nnc(NC(=O)c2cccc(S(=O)(=O)N3CCOCC3)c2)s1
groupLabel: F
//
compound: O=C(Nc1nc2ccccc2n1CCN1CCOCC1)c1ccc(COc2ccccc2Br)o1
groupLabel: T
//
compound: COCCN1CN(S(=O)(=O)c2ccccc2)c2nc3ccccc3nc21
groupLabel: F
//
compound: CN(C)C(=O)CSc1nnc(-c2cnccn2)n1C
groupLabel: T
//
compound: O=c1[nH]c2ccccc2c(O)c1O
groupLabel: T
//
compound: CN(C)C(=S)N=Nc1[nH]c2ccccc2c1O
groupLabel: T
//
compound: CN(C)S(=O)(=O)c1ccc(N2CCN(S(=O)(=O)c3ccc(F)cc3)CC2)c(Cl)c1
groupLabel: T
//
compound: CC(C)COC(=O)c1nnsc1NC(=O)Nc1ccccc1
groupLabel: T
//
compound: COc1ccc(C(c2nnnn2Cc2ccccc2)N2CCN(c3nc4ccccc4s3)CC2)cc1 (stereo unspecified)
groupLabel: T
//
compound: CC[n+]1c(/C=C/C=C/N(C(C)=O)c2ccccc2)sc2cc(OC)ccc21
groupLabel: F
//
compound: CCCCCCc1cc2cc(C(=O)Nc3ccc(OC)cc3)c(=O)oc2cc1O
groupLabel: T
//
compound: O=C(NCCCn1ccnc1)/C(=C/c1ccco1)NC(=O)c1cccs1
groupLabel: F
//
compound: Brc1ccc(Oc2nsnc2N2CCOCC2)cc1
groupLabel: F
//
compound: N#C/C(=C/c1ccc(N2CCCCC2)o1)c1cccc(F)c1
groupLabel: F
//
compound: Cc1ccc(NC(=O)/C=C/c2ccc([N+](=O)[O-])s2)cc1
groupLabel: F
//
compound: CCOC(=O)c1ccccc1NC(=O)c1ccc2c(=O)n3c(nc2c1)CCCCC3
groupLabel: T
//
compound: COc1cc(-c2noc(C3CCCN(S(=O)(=O)c4cccc(Cl)c4)C3)n2)cc(OC)c1OC (stereo unspecified)
groupLabel: T
//
compound: CCOC(=O)c1sc(NC(=O)c2sccc2C)cc1C
groupLabel: F
//
compound: Nc1c(C(=O)c2cccs2)sc2nsc(SCCN3CCCCC3)c12
groupLabel: F
//
compound: Cc1ccc(C)c(NC(=O)C(C)CC2COCCO2)c1 (stereo unspecified)
groupLabel: F
//
compound: C=CCn1c(SCC(=O)Nc2nccs2)nnc1-c1cc2cccc(OC)c2o1
groupLabel: T
//
compound: O=C(Nc1ccccc1)c1ccccc1NS(=O)(=O)c1ccc(Cl)s1
groupLabel: T
//
compound: CS(=O)c1nc(-c2ccc(Br)cc2)cc(-c2ccccc2)c1C#N (stereo unspecified)
groupLabel: T
//
compound: COC(=O)N/N=C\c1cc2c(cc1Br)OCO2
groupLabel: T
//
compound: Cc1nn(C)c(C)c1S(=O)(=O)N(CC(=O)Nc1nccs1)c1ccc(C(C)C)cc1
groupLabel: F
//
compound: COC(=O)c1ccccc1NC(=S)N1CCC(N2CCCCC2)CC1
groupLabel: T

These entries and their values trace back to PubChem BioAssay AID1628.
